The reported measurements were obtained from the supplement of paper PMC7125110.

The following variants are shown together with reported self-cleavage kobs at 640 uM GlcN6P values.
B1: glmS ribozyme (parent)
chain: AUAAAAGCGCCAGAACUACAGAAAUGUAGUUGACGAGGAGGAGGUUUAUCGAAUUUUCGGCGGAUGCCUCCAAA

Variants of: B1
Assay: self-cleavage kobs at 640 uM GlcN6P; higher = faster cleavage; RNA array
Settings: with glucosamine-6-phosphate
This sample holds only a part of the variants without activity.
Entry rule: numbers only, all in s⁻¹.

Completed entries (count: 4):
Variant Key | self-cleavage kobs at 640 uM GlcN6P / s⁻¹
G29A U65A | 0.000132
C16U C70U | 0.00284
A15G A64C | 3.75e-05
C16U A39G G66A | 0.00662

For A14C A53G , what is its reported self-cleavage kobs at 640 uM GlcN6P?
0.00116

Also C50A C70U , if possible.
2.82e-05
